The reported measurements were obtained from patent US11739074B2.

Target: KRAS G13D (Homo sapiens, UniProt P01116+P62937, G13D)
Sequence (P01116 1-169 isoform P01116-2 G13D limits assumed): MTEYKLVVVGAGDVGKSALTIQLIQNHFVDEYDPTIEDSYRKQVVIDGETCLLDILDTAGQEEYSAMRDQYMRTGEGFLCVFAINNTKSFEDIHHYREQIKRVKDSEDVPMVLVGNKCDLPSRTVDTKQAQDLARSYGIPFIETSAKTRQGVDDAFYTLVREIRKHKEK
Sequence (P62937 whole entry): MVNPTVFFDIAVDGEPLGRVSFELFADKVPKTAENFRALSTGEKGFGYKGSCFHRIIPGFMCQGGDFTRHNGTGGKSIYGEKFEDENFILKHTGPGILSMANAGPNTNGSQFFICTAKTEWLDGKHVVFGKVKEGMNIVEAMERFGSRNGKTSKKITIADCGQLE
Experiment: Ras-Raf disruption/FRET/MOA assay, KRAS G13D
Assay type: biochemical
Details: disruption of BRAF RBD binding, with Cyclophilin A; read-out: KRAS G13D FRET IC50
pIC50: −log10 of the molar value.
Readout kind: pIC50

Compound	Readout kind	Value measured
CCn1c(-c2cnccc2COC)c2c3cc(ccc31)-c1cc(O)cc(c1)C[C@H](NC(=O)[C@H](C(C)C)N(C)C(=O)[C@H]1CCN(C(=O)N3C[C@H]3C(=O)OC)C1)C(=O)N1CCC[C@H](N1)C(=O)OCC(C)(C)C2 [Compound 111]	pIC50	6.00 to 7.00

query: What pIC50 value was documented for this compound, CCn1c(-c2cnccc2COC)c2c3cc(ccc31)-c1cccc(c1)C[C@H](NC(=O)[C@H](C(C)C)N(C)C(=O)[C@H]1CC[C@H](N=C=Nc3ccc(OC)cc3)C1)C(=O)N1CCC[C@H](N1)C(=O)OCC(C)(C)C2 [71 A and B] ?
result: < 5.00
